System: MV4-11
method.summary: Antiproliferative activity against human MV4-11 cells after 72 hrs by MTS assay
Format: functional, cell-based
condition.notes: MV4-11, 72 h
reported.endpoint: IC50 (nM)

Check out these entries, answers already filled in.
                              line_notation  reported_endpoint  result_number
0  Cc1ccc(CNC(=O)[C@@H]2COCCCCCCOc3ccccc3C(=O)N[C@@H](CC(=O)NCC(C)(C)C)C(=O)N2)cc1               IC50             76
1  Cc1ccc(CNC(=O)[C@@H]2COCCCCCCCn3ccnc3C(=O)N[C@@H](CC(=O)NCC(C)(C)C)C(=O)N2)cc1               IC50             12
2  Cc1ccc(CNC(=O)[C@@H]2Cc3cn(c4ccccc34)CCCCCn3ccnc3C(=O)N[C@@H](CC(=O)NCC(C)(C)C)C(=O)N2)cc1               IC50             52
3  CCCCCCOC[C@H](NC(=O)[C@H](CC(=O)NCC(C)(C)C)NC(=O)c1cnn(C)c1CCC)C(=O)NCc1ccc(C)cc1               IC50             73

I = Cc1ccc(CNC(=O)[C@H]2NC(=O)[C@H](CC(=O)NCC(C)(C)C)NC(=O)c3nccn3CCCCCCCO[C@H]2C)cc1
II = CC(C)(C)CNC(=O)C[C@@H]1NC(=O)c2ccccc2OCCCCCCOC[C@@H](C(=O)NCc2ccccc2Cl)NC1=O
III = Cc1ccc(CNC(=O)[C@@H]2COCCCCCCOc3c(cnn3C)C(=O)N[C@@H](CC(=O)NCC(C)(C)C)C(=O)N2)cc1
IV = Cc1ccc(CNC(=O)[C@@H]2COCCCCCCCc3c(cnn3C)C(=O)N[C@@H](CC(=O)NCC(C)(C)C)C(=O)N2)cc1
Number of compounds to sort: 4. Sort criterion: IC50, ascending. Return value: ordered labels per request.
IV, III, I, II
